Entry source: ChEMBL document CHEMBL3217531

TESTED_TARGET: Kappa-type opioid receptor (Homo sapiens, UniProt P41145)
Sequence (P41145 whole entry): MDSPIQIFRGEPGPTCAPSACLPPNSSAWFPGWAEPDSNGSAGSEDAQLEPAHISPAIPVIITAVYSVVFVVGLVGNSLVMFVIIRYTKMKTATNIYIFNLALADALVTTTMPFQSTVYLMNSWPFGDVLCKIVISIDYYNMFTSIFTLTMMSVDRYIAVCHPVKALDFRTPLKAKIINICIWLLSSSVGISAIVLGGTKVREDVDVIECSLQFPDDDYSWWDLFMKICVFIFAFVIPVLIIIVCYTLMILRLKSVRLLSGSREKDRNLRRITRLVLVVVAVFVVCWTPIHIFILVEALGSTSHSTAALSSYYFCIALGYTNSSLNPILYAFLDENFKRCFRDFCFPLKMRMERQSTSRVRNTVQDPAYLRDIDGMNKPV
TEST_METHOD_NOTES: Agonist activity at human kappa opioid receptor expressed in CHO cell membrane by [35S]GTPgammaS binding assay
pEC50: −log10 of the molar value.
REPORTED_PROPERTY: pEC50

Task: Specify measured pEC50 for CCNC(=O)O[C@H]1C[C@@H](C(=O)OC)[C@]2(C)CC[C@H]3C(=O)O[C@H](c4ccoc4)C[C@]3(C)[C@H]2C1=O .
Result: < 6.00

----------
TESTED_TARGET: Kappa-type opioid receptor (Homo sapiens, UniProt P41145)
TEST_METHOD_NOTES: Agonist activity at human kappa opioid receptor expressed in CHO cell membrane assessed as [35S]GTPgammaS binding after 3 hrs by liquid scintillation counting analysis relative to (-)-U50488H
Format: functional, cell membranes
REPORTED_PROPERTY: Emax (%)
Expressed in %, but write only the number.

Example results:
COC(=O)[C@@H]1C[C@H](O[C@@H]2CCCO2)C(=O)[C@H]2[C@@]1(C)CC[C@H]1C(=O)O[C@H](c3ccoc3)C[C@]21C 112
COC(=O)[C@@H]1C[C@H](O[C@@H]2CCCCO2)C(=O)[C@H]2[C@@]1(C)CC[C@H]1C(=O)O[C@H](c3ccoc3)C[C@]21C 109
COCO[C@H]1C[C@@H](C(=O)OC)[C@]2(C)CC[C@H]3C(=O)O[C@H](C(=O)N4CCCCC4)C[C@]3(C)[C@H]2C1=O 113
COC(=O)[C@@H]1C[C@H](OC(C)=O)C(=O)[C@H]2[C@@]1(C)CC[C@H]1C(=O)O[C@H](C(=O)N3CCCCC3)C[C@]21C 85
COC(=O)[C@@H]1C[C@H](O[C@H]2CCCO2)C(=O)[C@H]2[C@@]1(C)CC[C@H]1C(=O)O[C@H](c3ccoc3)C[C@]21C 103

Task: Specify measured Emax for CCOCO[C@H]1C[C@@H](C(=O)OC)[C@]2(C)CC[C@H]3C(=O)O[C@H](c4ccoc4)C[C@]3(C)[C@H]2C1=O .
Result: 127

----------
Known pKi of a selection of compounds
TESTED_TARGET: Mu-type opioid receptor (Homo sapiens, UniProt P35372)
Sequence (P35372 whole entry): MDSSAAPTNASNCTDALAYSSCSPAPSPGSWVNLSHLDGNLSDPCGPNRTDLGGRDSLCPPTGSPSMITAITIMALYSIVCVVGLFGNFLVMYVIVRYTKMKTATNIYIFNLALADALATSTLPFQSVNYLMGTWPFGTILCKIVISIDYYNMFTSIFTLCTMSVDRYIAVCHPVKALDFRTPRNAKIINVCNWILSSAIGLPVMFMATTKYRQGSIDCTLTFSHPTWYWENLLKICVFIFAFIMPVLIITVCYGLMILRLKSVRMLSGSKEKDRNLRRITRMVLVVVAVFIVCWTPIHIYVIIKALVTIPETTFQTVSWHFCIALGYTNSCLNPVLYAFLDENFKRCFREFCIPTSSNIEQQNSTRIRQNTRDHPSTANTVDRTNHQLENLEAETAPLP
TEST_METHOD_NOTES: Displacement of [3H]DAMGO from human mu opioid receptor expressed in CHO cell membrane after 2 hrs by liquid scintillation counting analysis
Assay type: cell membranes
pKi: −log10 of the molar value.

COMPOUND	pKi
CCO[C@@H](CBr)O[C@H]1C[C@@H](C(=O)OC)[C@]2(C)CC[C@H]3C(=O)O[C@H](c4ccoc4)C[C@]3(C)[C@H]2C1=O	< 5.52
COCO[C@H]1C[C@@H](C(=O)OC)[C@]2(C)CC[C@H]3C(=O)O[C@H](C(=O)N4CCCCC4)C[C@]3(C)[C@H]2C1=O	< 5.52
COC(=O)[C@@H]1C[C@H](O[C@@H]2CCCCO2)C(=O)[C@H]2[C@@]1(C)CC[C@H]1C(=O)O[C@H](c3ccoc3)C[C@]21C	< 5.00
COC(=O)[C@@H]1C[C@H](O[C@H]2CCCCO2)C(=O)[C@H]2[C@@]1(C)CC[C@H]1C(=O)O[C@H](c3ccoc3)C[C@]21C	< 5.00
CCOCO[C@H]1C[C@@H](C(=O)OC)[C@]2(C)CC[C@H]3C(=O)O[C@H](c4ccoc4)C[C@]3(C)[C@H]2C1=O [SALVINORIN B ETHOXYMETHYL ETHER]	7.39

Task: Specify measured pKi for CCOC(=O)O[C@H]1C[C@@H](C(=O)OC)[C@]2(C)CC[C@H]3C(=O)O[C@H](c4ccoc4)C[C@]3(C)[C@H]2C1=O .
Result: < 5.00

Task: Specify measured pKi for CCO[C@H](CBr)O[C@H]1C[C@@H](C(=O)OC)[C@]2(C)CC[C@H]3C(=O)O[C@H](c4ccoc4)C[C@]3(C)[C@H]2C1=O .
Result: 5.45

Task: Specify measured pKi for CCNC(=O)O[C@H]1C[C@@H](C(=O)OC)[C@]2(C)CC[C@H]3C(=O)O[C@H](c4ccoc4)C[C@]3(C)[C@H]2C1=O .
Result: 5.81

Task: Specify measured pKi for COC(=O)[C@@H]1C[C@H](O[C@H]2CCCO2)C(=O)[C@H]2[C@@]1(C)CC[C@H]1C(=O)O[C@H](c3ccoc3)C[C@]21C .
Result: < 5.00

Task: Specify measured pKi for COC(=O)[C@@H]1C[C@H](O[C@@H]2CCCO2)C(=O)[C@H]2[C@@]1(C)CC[C@H]1C(=O)O[C@H](c3ccoc3)C[C@]21C .
Result: < 5.00

Task: Specify measured pKi for COC(=O)[C@@H]1C[C@H](OC=O)C(=O)[C@H]2[C@@]1(C)CC[C@H]1C(=O)O[C@H](c3ccoc3)C[C@]21C .
Result: < 5.00

Task: Specify measured pKi for CCO[C@H](C)O[C@H]1C[C@@H](C(=O)OC)[C@]2(C)CC[C@H]3C(=O)O[C@H](c4ccoc4)C[C@]3(C)[C@H]2C1=O .
Result: < 5.24

Task: Specify measured pKi for CCO[C@@H](C)O[C@H]1C[C@@H](C(=O)OC)[C@]2(C)CC[C@H]3C(=O)O[C@H](c4ccoc4)C[C@]3(C)[C@H]2C1=O .
Result: 6.11
